# SYSTEM UNDER TEST: recombinant soluble tissue factor and recombinant human factor VIIa (TF-VIIa) (Homo sapiens, UniProt P08709)
# Construct: conversion of coagulation factor VII to VIIa by factor Xa
# Sequence (P08709 213-466 limits assumed): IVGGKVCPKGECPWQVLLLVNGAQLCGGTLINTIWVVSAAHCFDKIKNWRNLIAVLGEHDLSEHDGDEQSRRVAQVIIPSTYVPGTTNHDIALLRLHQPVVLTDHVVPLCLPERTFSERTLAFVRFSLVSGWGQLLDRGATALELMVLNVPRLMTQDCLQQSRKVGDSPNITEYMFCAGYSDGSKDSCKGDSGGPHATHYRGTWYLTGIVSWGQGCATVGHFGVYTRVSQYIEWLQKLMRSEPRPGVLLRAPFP
# Sequence (P08709 61-212 limits assumed): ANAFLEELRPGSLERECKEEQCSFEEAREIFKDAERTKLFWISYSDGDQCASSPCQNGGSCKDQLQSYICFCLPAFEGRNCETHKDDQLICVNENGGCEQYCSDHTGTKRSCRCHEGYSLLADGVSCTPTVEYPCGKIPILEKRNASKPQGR
# Sequence (P13726 33-251 partner limits assumed): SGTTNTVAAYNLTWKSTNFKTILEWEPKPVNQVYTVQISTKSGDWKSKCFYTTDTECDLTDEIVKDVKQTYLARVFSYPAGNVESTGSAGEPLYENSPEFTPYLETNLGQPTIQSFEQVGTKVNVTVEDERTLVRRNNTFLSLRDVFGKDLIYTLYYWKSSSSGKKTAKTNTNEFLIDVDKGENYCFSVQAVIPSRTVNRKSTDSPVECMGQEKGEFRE
# ASSAY INFO: TF-VIIa assay (chromogenic substrate hydrolysis)
# TEST SETTINGS: reported only as less than or greater than 0.1 uM
MEASURED QUANTITY: IC50

Guide cases for IC50, answers given:
MOLECULE | RESULT
CC(C)Nc1ncc(-c2cc(N)cc(C(=O)NCc3cccc(O)c3)c2)n(CC(=O)NCc2ccc(C(=N)N)cc2)c1=O | < 100 nM
CCC(C)[C@H](NC(=O)c1cc(N)cc(-c2cnc(NC(C)C)c(=O)n2CC(=O)NCc2ccc(C(=N)N)cc2)c1)C(=O)O (stereo partly drawn) | < 100 nM

Count: 4. Required value per item: IC50.
1. CC[C@H](C)NC(=O)c1cc(N)cc(-c2cnc(NC(C)C)c(=O)n2CC(=O)NCc2ccc(C(=N)N)cc2)c1.O=C(O)C(F)(F)F
2. CC(C)Nc1ncc(-c2cc(N)cc(C(F)(F)F)c2)n(CC(=O)NCc2ccc(C(=N)N)c(O)c2)c1=O
3. CNC(=O)c1cc(N)cc(-c2cnc(NC(C)C)c(=O)n2CC(=O)NCc2ccc(C(=N)N)cc2)c1
4. CC(C)Nc1ncc(-c2cc(N)cc(OCC(C)(C)CN(C)C)c2)n(CC(=O)NCc2ccc(C(=N)N)cc2)c1=O.O=C(O)C(F)(F)F.O=C(O)C(F)(F)F

Response given:
1. < 100 nM
2. > 100 nM
3. < 100 nM
4. < 100 nM

---

# SYSTEM UNDER TEST: recombinant soluble tissue factor and recombinant human factor VIIa (TF-VIIa) (Homo sapiens)
# Construct: conversion of coagulation factor VII to VIIa by factor Xa
# ASSAY INFO: TF-VIIa assay (chromogenic substrate hydrolysis)
# TEST SETTINGS: reported only as less than or greater than 0.1 uM
# Protocol: In this assay 100 nM recombinant soluble tissue factor and 2 nM recombinant human factor VIIa are added to a 96-well assay plate containing 0.4 mM of the substrate, N-methylsulfonyl-D-phe-gly-arg-p-nitroaniline and either inhibitor or buffer (5 mM CaCl2, 50 mM Tris-HCl, pH 8.0, 100 mM NaCl, 0.1% BSA). […] Percent inhibition of TF-VIIa activity is calculated from OD405 nm value from the experimental and control sample. […]
pIC50: −log10 of the molar value.
Can you tell me pIC50 for the items I'm about to list?

MOLECULE | pIC50
CNc1ncc(-c2cc(N)cc(C(=O)O)c2)n(CC(=O)NCc2ccc(C(=N)N)cc2)c1=O | < 7.00
CC(C)Nc1ncc(-c2cc(N)cc(C(=O)N[C@H](C)c3ccccc3)c2)n(CC(=O)NCc2ccc(C(=N)N)cc2)c1=O | > 7.00
CC(C)Nc1ncc(-c2cc(N)cc(C(=O)NCCO)c2)n(CC(=O)NCc2ccc(C(=N)N)cc2)c1=O | < 7.00

Parameter requested: pIC50. Apply to each item below.
1. CC(C)Nc1ncc(-c2cc(N)cc(C(=O)N[C@@H](C(=O)O)c3ccccc3)c2)n(CC(=O)NCc2ccc(C(=N)N)cc2)c1=O
2. CC[C@H](C)NC(=O)c1cc(N)cc(-c2cnc(NC(C)C)c(=O)n2CC(=O)NCc2c(O)cc(C(=N)N)cc2OC)c1
3. CC(C)Nc1ncc(-c2cc(N)cc(OC3CCCCC3)c2)n(CC(=O)NCc2ccc(C(=N)N)cc2)c1=O.O=C(O)C(F)(F)F.O=C(O)C(F)(F)F
4. CC(C)Nc1ncc(-c2cc(N)cc(C(=O)NC(C)(C)CCO)c2)n(CC(=O)NCc2ccc(C(=N)N)cc2)c1=O
5. CC(C)Nc1ncc(-c2cc(N)cc(NS(=O)(=O)CCc3ccccc3)c2)n(CC(=O)NCc2ccc(C(=N)N)cc2)c1=O
6. CCC(C)NC(=O)c1cc(N)cc(-c2cnc(NC(C)C)c(=O)n2CC(=O)NCc2ccc(C(=N)N)c(O)c2)c1 (stereo not shown)

Response given:
> 7.00
> 7.00
> 7.00
> 7.00
> 7.00
> 7.00

Would you be so kind as to report pIC50 for each listed record?
1. CC(C)Nc1ncc(-c2cc(N)cc(C(F)(F)F)c2)n(CC(=O)NCc2ccc(C(=N)N)cc2)c1=O
2. CC(C)Nc1ncc(-c2cc(N)cc(C(=O)NCCc3ccc(F)cc3)c2)n(CC(=O)NCc2ccc(C(=N)N)cc2)c1=O
3. CC(C)Nc1ncc(-c2cc(N)cc(C(=O)N[C@H](C)C3CCCCC3)c2)n(CC(=O)NCc2ccc(C(=N)N)cc2)c1=O.O=C(O)C(F)(F)F
4. CC(C)Nc1ncc(-c2cc(N)cc(NC3CCCC3)c2)n(CC(=O)NCc2ccc(C(=N)N)cc2)c1=O.O=C(O)C(F)(F)F.O=C(O)C(F)(F)F

Response given:
> 7.00
> 7.00
> 7.00
> 7.00
